Biological target: Proto-oncogene tyrosine-protein kinase receptor Ret (Homo sapiens)
Sequence (P07949 whole entry, the tested form may be a part): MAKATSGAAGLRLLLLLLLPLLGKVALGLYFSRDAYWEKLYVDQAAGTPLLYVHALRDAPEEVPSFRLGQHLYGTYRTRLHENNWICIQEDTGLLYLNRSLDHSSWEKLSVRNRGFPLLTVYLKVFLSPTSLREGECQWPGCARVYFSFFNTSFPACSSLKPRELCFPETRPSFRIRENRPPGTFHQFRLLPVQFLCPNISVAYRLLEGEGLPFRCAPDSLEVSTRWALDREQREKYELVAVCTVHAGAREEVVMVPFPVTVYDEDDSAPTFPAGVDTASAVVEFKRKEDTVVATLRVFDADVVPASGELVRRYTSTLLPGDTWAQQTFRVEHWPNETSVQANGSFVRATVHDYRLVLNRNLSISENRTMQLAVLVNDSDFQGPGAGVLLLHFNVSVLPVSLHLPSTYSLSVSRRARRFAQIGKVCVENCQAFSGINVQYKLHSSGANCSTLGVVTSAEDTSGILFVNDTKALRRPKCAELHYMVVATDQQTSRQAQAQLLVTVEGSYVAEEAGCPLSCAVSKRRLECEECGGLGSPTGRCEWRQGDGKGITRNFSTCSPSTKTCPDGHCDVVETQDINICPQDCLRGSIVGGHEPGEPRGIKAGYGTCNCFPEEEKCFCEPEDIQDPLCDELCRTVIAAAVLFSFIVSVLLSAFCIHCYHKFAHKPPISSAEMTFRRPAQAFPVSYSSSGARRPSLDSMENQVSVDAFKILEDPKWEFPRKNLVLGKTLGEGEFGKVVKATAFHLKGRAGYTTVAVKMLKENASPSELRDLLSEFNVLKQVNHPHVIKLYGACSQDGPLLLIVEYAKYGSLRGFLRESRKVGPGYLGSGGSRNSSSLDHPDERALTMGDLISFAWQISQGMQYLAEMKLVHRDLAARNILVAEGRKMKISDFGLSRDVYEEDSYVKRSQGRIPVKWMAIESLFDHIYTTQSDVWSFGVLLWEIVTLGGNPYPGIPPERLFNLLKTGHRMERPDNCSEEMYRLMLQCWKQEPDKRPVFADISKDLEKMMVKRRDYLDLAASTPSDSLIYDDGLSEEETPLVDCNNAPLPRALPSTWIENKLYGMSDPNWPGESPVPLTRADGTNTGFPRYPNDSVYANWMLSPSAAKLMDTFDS
Experiment: Inhibition of human RET kinase cytoplasmic domain by Time-Resolved fluorescence reader assay
measured_endpoint: IC50

query_smiles=CCOc1cc(-c2ccc(CC(=O)Nc3ccc(Cl)c(Cl)c3)c(F)c2)c[nH]c1=O val="≥ 100 nM"
